Assay overview: LDH cytotoxic activity assay, Hep3B
Format: cell-based
Measurement context: human, Hep3B cells, 50 μg/mL
Catalogue of cytotoxicity at 24 h, 50 μg/mL readings, one per entry.
Endpoint name: cytotoxicity at 24 h, 50 μg/mL (%)

1) Cc1ccc(-c2cc(-c3ccccn3)nc(N[C@@H]3O[C@H](CO)[C@@H](O)[C@H](O)[C@H]3O)n2)cc1; 17
2) Cc1cccc(-c2cc(-c3cccnc3)nc(N[C@@H]3O[C@H](CO)[C@@H](O)[C@H](O)[C@H]3O)n2)c1; 25.5
3) Cc1cccc(-c2cc(-c3ccccn3)nc(N[C@@H]3O[C@H](CO)[C@@H](O)[C@H](O)[C@H]3O)n2)c1; 28.9
4) Cc1ccc(-c2cc(-c3ccncc3)nc(N[C@@H]3O[C@H](CO)[C@@H](O)[C@H](O)[C@H]3O)n2)cc1; 24.4
5) Cc1cccc(-c2cc(-c3ccncc3)nc(N[C@@H]3O[C@H](CO)[C@@H](O)[C@H](O)[C@H]3O)n2)c1; 15.4
6) Cc1ccc(-c2cc(-c3cccnc3)nc(N[C@@H]3O[C@H](CO)[C@@H](O)[C@H](O)[C@H]3O)n2)cc1; 20.5

###

Assay overview: LDH cytotoxic activity assay, MCF7
Assay type: cell-based
Measurement context: human, MCF7 cells, MCF7, 75 μg/mL
Catalogue of cytotoxicity at 24 h, 75 μg/mL readings, one per entry.
Endpoint name: cytotoxicity at 24 h, 75 μg/mL (%)

1. Cc1cccc(-c2cc(-c3ccccn3)nc(N[C@@H]3O[C@H](CO)[C@@H](O)[C@H](O)[C@H]3O)n2)c1; 30
2. Cc1cccc(-c2cc(-c3ccncc3)nc(N[C@@H]3O[C@H](CO)[C@@H](O)[C@H](O)[C@H]3O)n2)c1; 31.8
3. Cc1ccc(-c2cc(-c3ccccn3)nc(N[C@@H]3O[C@H](CO)[C@@H](O)[C@H](O)[C@H]3O)n2)cc1; 26.6
4. Cc1ccc(-c2cc(-c3ccncc3)nc(N[C@@H]3O[C@H](CO)[C@@H](O)[C@H](O)[C@H]3O)n2)cc1; 27.5
5. Cc1ccc(-c2cc(-c3cccnc3)nc(N[C@@H]3O[C@H](CO)[C@@H](O)[C@H](O)[C@H]3O)n2)cc1; 32.8
6. Cc1cccc(-c2cc(-c3cccnc3)nc(N[C@@H]3O[C@H](CO)[C@@H](O)[C@H](O)[C@H]3O)n2)c1; 24.9

###

Catalogue of MIC readings, one per entry.
Tested on: S. aureus MSSA ATCC 29213
Assay overview: Microdilution MIC assay
Assay type: cell-based
Measurement context: S. aureus MSSA ATCC 29213, 24 h at 35 °C
Endpoint name: MIC

1. Cc1cccc(-c2cc(-c3ccncc3)nc(N[C@@H]3O[C@H](CO)[C@@H](O)[C@H](O)[C@H]3O)n2)c1; 125 µg/mL
2. Cc1cccc(-c2cc(-c3cccnc3)nc(N[C@@H]3O[C@H](CO)[C@@H](O)[C@H](O)[C@H]3O)n2)c1; 125 µg/mL
3. Cc1ccc(-c2cc(-c3cccnc3)nc(N[C@@H]3O[C@H](CO)[C@@H](O)[C@H](O)[C@H]3O)n2)cc1; 62.5 µg/mL

###

Observed log10 GI50 values for A549 are listed in what follows.
Endpoint name: log10 GI50 (log10 of the value in µg/mL)

1) CC(=O)OC[C@H]1O[C@@H](Nc2nc(-c3ccncc3)cc(-c3ccc(C)cc3)n2)[C@H](OC(C)=O)[C@@H](OC(C)=O)[C@@H]1OC(C)=O; 1.19
2) CC(=O)OC[C@H]1O[C@@H](Nc2nc(-c3cccnc3)cc(-c3cccc(C)c3)n2)[C@H](OC(C)=O)[C@@H](OC(C)=O)[C@@H]1OC(C)=O; 2.63
3) Cc1ccccc1-c1cc(-c2ccccn2)nc(N[C@@H]2O[C@H](CO)[C@@H](O)[C@H](O)[C@H]2O)n1; 1.83
4) CC(=O)OC[C@H]1O[C@@H](Nc2nc(-c3ccc(C)cc3)cc(-c3cccnc3)n2)[C@H](OC(C)=O)[C@@H](OC(C)=O)[C@@H]1OC(C)=O; 0.89
5) Cc1ccccc1-c1cc(-c2ccncc2)nc(N[C@@H]2O[C@H](CO)[C@@H](O)[C@H](O)[C@H]2O)n1; 0.81

###

System: HeLa
Assay overview: cells
Assay type: cell-based
Measurement context: Homo sapiens, MTT, read-out: TGI
Endpoint name: IC (total growth inhibition)

1. CC(=O)OC[C@H]1O[C@@H](Nc2nc(-c3cccnc3)cc(-c3ccccc3C)n2)[C@H](OC(C)=O)[C@@H](OC(C)=O)[C@@H]1OC(C)=O; > 500 µg/mL
2. CC(=O)OC[C@H]1O[C@@H](Nc2nc(-c3ccncc3)cc(-c3cccc(C)c3)n2)[C@H](OC(C)=O)[C@@H](OC(C)=O)[C@@H]1OC(C)=O; > 500 µg/mL
3. Cc1ccc(-c2cc(-c3ccccn3)nc(N[C@@H]3O[C@H](CO)[C@@H](O)[C@H](O)[C@H]3O)n2)cc1; 21.6 µg/mL
4. CC(=O)OC[C@H]1O[C@@H](Nc2nc(-c3cccc(C)c3)cc(-c3ccccn3)n2)[C@H](OC(C)=O)[C@@H](OC(C)=O)[C@@H]1OC(C)=O; 17.3 µg/mL
5. CC(=O)OC[C@H]1O[C@@H](Nc2nc(-c3cccnc3)cc(-c3cccc(C)c3)n2)[C@H](OC(C)=O)[C@@H](OC(C)=O)[C@@H]1OC(C)=O; > 500 µg/mL
6. CC(=O)OC[C@H]1O[C@@H](Nc2nc(-c3ccncc3)cc(-c3ccccc3C)n2)[C@H](OC(C)=O)[C@@H](OC(C)=O)[C@@H]1OC(C)=O; > 500 µg/mL
7. CC(=O)OC[C@H]1O[C@@H](Nc2nc(-c3ccc(C)cc3)cc(-c3ccccn3)n2)[C@H](OC(C)=O)[C@@H](OC(C)=O)[C@@H]1OC(C)=O; 3.28 µg/mL
8. Cc1cccc(-c2cc(-c3ccncc3)nc(N[C@@H]3O[C@H](CO)[C@@H](O)[C@H](O)[C@H]3O)n2)c1; > 500 µg/mL
9. Cc1ccccc1-c1cc(-c2cccnc2)nc(N[C@@H]2O[C@H](CO)[C@@H](O)[C@H](O)[C@H]2O)n1; > 500 µg/mL
10. Cc1ccc(-c2cc(-c3ccncc3)nc(N[C@@H]3O[C@H](CO)[C@@H](O)[C@H](O)[C@H]3O)n2)cc1; > 500 µg/mL
11. Cc1ccc(-c2cc(-c3cccnc3)nc(N[C@@H]3O[C@H](CO)[C@@H](O)[C@H](O)[C@H]3O)n2)cc1; 50.1 µg/mL
12. CC(=O)OC[C@H]1O[C@@H](Nc2nc(-c3ccccn3)cc(-c3ccccc3C)n2)[C@H](OC(C)=O)[C@@H](OC(C)=O)[C@@H]1OC(C)=O; > 500 µg/mL
13. Cc1cccc(-c2cc(-c3ccccn3)nc(N[C@@H]3O[C@H](CO)[C@@H](O)[C@H](O)[C@H]3O)n2)c1; 46 µg/mL
14. Cc1cccc(-c2cc(-c3cccnc3)nc(N[C@@H]3O[C@H](CO)[C@@H](O)[C@H](O)[C@H]3O)n2)c1; > 500 µg/mL
15. Cc1ccccc1-c1cc(-c2ccncc2)nc(N[C@@H]2O[C@H](CO)[C@@H](O)[C@H](O)[C@H]2O)n1; > 500 µg/mL
16. CC(=O)OC[C@H]1O[C@@H](Nc2nc(-c3ccncc3)cc(-c3ccc(C)cc3)n2)[C@H](OC(C)=O)[C@@H](OC(C)=O)[C@@H]1OC(C)=O; 1.29 µg/mL
17. CC(=O)OC[C@H]1O[C@@H](Nc2nc(-c3ccc(C)cc3)cc(-c3cccnc3)n2)[C@H](OC(C)=O)[C@@H](OC(C)=O)[C@@H]1OC(C)=O; > 500 µg/mL
18. Cc1ccccc1-c1cc(-c2ccccn2)nc(N[C@@H]2O[C@H](CO)[C@@H](O)[C@H](O)[C@H]2O)n1; 35.1 µg/mL

###

Assay overview: LDH cytotoxic activity assay, A549
Assay type: cell-based
Measurement context: human, A549 cells, A549, 100 μg/mL
Class Criterion met: cytotoxicity at 24 h, 100 μg/mL at least 60%. Class Criterion not met: cytotoxicity at 24 h, 100 μg/mL below 60%.

1. Cc1cccc(-c2cc(-c3cccnc3)nc(N[C@@H]3O[C@H](CO)[C@@H](O)[C@H](O)[C@H]3O)n2)c1 [Compound 5]; Criterion met
2. Cc1ccc(-c2cc(-c3ccccn3)nc(N[C@@H]3O[C@H](CO)[C@@H](O)[C@H](O)[C@H]3O)n2)cc1 [Compound 7]; Criterion not met
3. Cc1cccc(-c2cc(-c3ccccn3)nc(N[C@@H]3O[C@H](CO)[C@@H](O)[C@H](O)[C@H]3O)n2)c1 [Compound 4]; Criterion met
4. Cc1ccc(-c2cc(-c3ccncc3)nc(N[C@@H]3O[C@H](CO)[C@@H](O)[C@H](O)[C@H]3O)n2)cc1 [Compound 9]; Criterion met
5. Cc1ccc(-c2cc(-c3cccnc3)nc(N[C@@H]3O[C@H](CO)[C@@H](O)[C@H](O)[C@H]3O)n2)cc1 [Compound 8]; Criterion not met
6. Cc1cccc(-c2cc(-c3ccncc3)nc(N[C@@H]3O[C@H](CO)[C@@H](O)[C@H](O)[C@H]3O)n2)c1 [Compound 6]; Criterion met
